- Test system: MCF7 breast
- Procedure Text: NCI-60 one-dose screen, 48 h (100 = growth as untreated, 0 = no growth, -100 = all killed)
- Applied Conditions: 10 µM
This is part of a sample that, as a whole, favours compounds with a hit. Of some 83,000 tested, about 20% had one in any assay.
Quantity Measured: growth (%)
State just the number; it will be interpreted in %.

*Q* Query the reported growth for MCF7 breast; item: CC(C)(C)OC(=O)N1CCc2c(sc3ncnc(N/N=C/c4cccc(Br)c4)c23)C1
*A* 5.3

*Q* Query the reported growth for MCF7 breast; item: Cc1ccc(NCCN(C)CC(C)O)c2c(=O)c3ccccc3sc12 (centres undefined)
*A* 20

*Q* Query the reported growth for MCF7 breast; item: CS(=O)(=O)c1nccc(-c2c(-c3cccc(OCCc4ccccc4)c3)nc3sccn23)n1
*A* 69.2

*Q* Query the reported growth for MCF7 breast; item: O=[N+]([O-])c1cc(Cl)cc(Cl)c1O
*A* 104

*Q* Query the reported growth for MCF7 breast; item: CN(C)c1ncnc2c1nnn2C1OC(CO)C(O)C1O (centres undefined)
*A* 6.74

*Q* Query the reported growth for MCF7 breast; item: Cc1cn(-c2cccc(NC(=O)c3ccc(C)c(Nc4nccc(-c5cccnc5)n4)c3)c2)cn1
*A* -24.6

*Q* Query the reported growth for MCF7 breast; item: COc1cc(-c2nn(-c3cccc(NC(=O)CN4CCOCC4)c3)cc2-c2cccnc2)ccc1Cl
*A* 62.4

*Q* Query the reported growth for MCF7 breast; item: Cc1c2cnccc2c(C)c2c1c1cc(O)ccc1n2C(C)C
*A* -3.2

*Q* Query the reported growth for MCF7 breast; item: CN1CCN(CCCn2c(=O)c3sc4ncccc4c3n3nnc(-c4ccccc4)c23)CC1
*A* 5.32

*Q* Query the reported growth for MCF7 breast; item: c1cnc2[nH]cc(-c3nc(-c4ccsc4)cs3)c2c1
*A* 57.7

*Q* Query the reported growth for MCF7 breast; item: CC1/C=C/C=C/C=C/C=C/C=C/C=C/C=C/C(O[C@@H]2O[C@H](C)[C@H](O)[C@@H](O)[C@@H]2N)CC(O)C(C(=O)O)C(O)CC(=O)CC(O)CC(O)CC(O)CC(=O)CCCC(=O)CC(=O)OC1C(C)CC(C)C(O)CC(=O)c1ccc(N)cc1 (some centres undefined)
*A* -87

*Q* Query the reported growth for MCF7 breast; item: CC(=O)N[C@H](C(=O)N[C@@H](CCCNC(=N)N)C(=O)N[C@@H](CCCCN)C(=O)N[C@@H](CCCNC(=N)N)C(=O)N[C@]1(C)CCC/C=C\CCC[C@@](C)(C(=O)N[C@@H](CC(C)C)C(=O)N[C@@H](CC(C)C)C(=O)N[C@@H](CCC(N)=O)C(=O)N[C@@H](CCC(=O)O)C(=O)N[C@@H](CCCNC(=N)N)C(=O)N[C@@H](CCC(=O)O)C(=O)N[C@@H](CC(C)C)C(=O)N[C@H](C(=O)N[C@@H](CCC(=O)O)C(N)=O)C(C)C)NC(=O)[C@H](CCCNC(=N)N)NC(=O)[C@H](CC(C)C)NC1=O)C(C)C
*A* 102

*Q* Query the reported growth for MCF7 breast; item: CNC(=O)c1cn2c3c(c(N4CCN(C)CC4)c(F)cc3c1=O)OC[C@@H]2C
*A* 95.8

*Q* Query the reported growth for MCF7 breast; item: Cc1nn(-c2ccccc2)c2nc(Cl)c(C=O)c(-c3ccccc3)c12
*A* 90.6
